Where do these numbers come from? They come from patent US11814435B2.

Target: T1, hBCMA (human BCMA) (Homo sapiens, UniProt Q02223)
T1 sequence (Q02223 1-184): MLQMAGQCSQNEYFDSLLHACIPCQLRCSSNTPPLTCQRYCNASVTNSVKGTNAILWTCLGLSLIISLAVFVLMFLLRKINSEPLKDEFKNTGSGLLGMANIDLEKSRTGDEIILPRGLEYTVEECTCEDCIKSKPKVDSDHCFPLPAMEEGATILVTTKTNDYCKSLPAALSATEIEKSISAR
Assay: Kinetics and affinity of hBCMA/human IgG interactions by SPR (Bio-Rad Proteon XPR36)
Format: binding
Settings: huBCMA, 37° C.
measured metric: ka (1/Ms) huBCMA @ 37° C. (M⁻¹ s⁻¹)
Field format: number, assumed M⁻¹ s⁻¹, no unit text.

Qu. ka (1/Ms) huBCMA @ 37° C. for L3.PY/L1.PH/H3.TAQ: anti-BCMA antibody (antibody, V domains shown) VH: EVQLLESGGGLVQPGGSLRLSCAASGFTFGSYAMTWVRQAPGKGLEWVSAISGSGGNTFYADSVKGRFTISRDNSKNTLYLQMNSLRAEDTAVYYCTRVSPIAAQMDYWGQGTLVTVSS VL: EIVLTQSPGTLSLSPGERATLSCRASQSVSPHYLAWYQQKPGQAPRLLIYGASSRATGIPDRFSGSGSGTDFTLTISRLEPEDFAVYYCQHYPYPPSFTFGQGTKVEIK ?
Ans. 3.58e+06
